# TARGET OF ASSAY: T1, Human OSM (human, UniProt P13725 26-221)
# T1 construct: Recombinant human OSM; also called hOSM; human Oncostatin M
# T1 sequence: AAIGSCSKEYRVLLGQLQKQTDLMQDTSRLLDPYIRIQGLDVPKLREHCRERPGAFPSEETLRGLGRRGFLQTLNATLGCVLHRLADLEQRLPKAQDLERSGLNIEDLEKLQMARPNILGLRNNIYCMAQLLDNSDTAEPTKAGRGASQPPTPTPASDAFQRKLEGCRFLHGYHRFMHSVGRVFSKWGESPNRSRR
# EXPERIMENTAL DETAILS: SPR (ProteOn XPR36 or Biacore T100), captured supernatant, OSM as analyte
Simple rule here: Kd less than 0.5 nM is Yes, otherwise No.

Prompt: Record Pos 95 Leu (antibody, V domains shown, also called CDRH3 D95>L) VH: EVQLVESGGGLVQPGGSLRLSCAASGFTFSSYAMSWVRQAPGKGLEWVATISDGGSFTYYLDNVRGRFTISRDNAKNSLYLQMNSLRAEDTAVYYCARLVGHTTFWYFDVWGRGTLVTVSS VL: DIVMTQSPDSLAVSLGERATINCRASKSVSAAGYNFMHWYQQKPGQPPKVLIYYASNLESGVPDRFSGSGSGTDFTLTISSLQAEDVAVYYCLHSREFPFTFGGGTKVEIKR : is its Kd strictly below 0.5 nM?
Completion: No
